System name: recombinant HDAC8 (Homo sapiens, UniProt Q9BY41)
Sequence (Q9BY41 1-377): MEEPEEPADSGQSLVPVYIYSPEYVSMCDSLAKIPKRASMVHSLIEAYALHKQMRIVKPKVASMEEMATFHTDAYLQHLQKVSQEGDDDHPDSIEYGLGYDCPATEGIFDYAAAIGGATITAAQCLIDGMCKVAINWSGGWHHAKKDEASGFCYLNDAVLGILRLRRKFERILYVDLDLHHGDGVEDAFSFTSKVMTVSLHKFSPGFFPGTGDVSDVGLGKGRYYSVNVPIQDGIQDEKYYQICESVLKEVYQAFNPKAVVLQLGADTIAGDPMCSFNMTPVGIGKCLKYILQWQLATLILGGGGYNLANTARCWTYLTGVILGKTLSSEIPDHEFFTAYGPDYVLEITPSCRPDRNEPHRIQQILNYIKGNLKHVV
Assay text: Recombinant HDAC activity assay
Type: biochemical
Condition details: 2 h, read-out: % HDAC activity, Class I HDACs, 8
Where a name gives a salt, the structure may show the parent alone.
Reported endpoint: remaining activity at 50 µM (%)
// return numeric value only (unit: %, not printed)

A selection of reference data follows.
O=c1cc(-c2ccc(O)c(O)c2)oc2cc(O)cc(O)c12 [Luteolin]; 52.8
O=c1c(O)c(-c2ccc(O)c(O)c2)oc2cc(O)cc(O)c12 [Quercetin dihydrate]; 64
O=C(O)[C@H]1O[C@@H](Oc2cc3oc(-c4ccccc4)cc(=O)c3c(O)c2O)[C@H](O)[C@@H](O)[C@@H]1O [Baicalin]; 78.3
Cc1cc(O)c2c(c1)C(=O)c1cc(O)cc(O)c1C2=O [Emodin]; 32.3

Here's the next entry for you.
IN: Entry COc1ccc2cc3[n+](cc2c1OC)CCc1cc2c(cc1-3)OCO2 [Berberine HCl, berberine hydrochloride] has what remaining activity at 50 µM?
OUT: 46.8
